Would you mind telling me the reported kon of each entry?
- target_or_test_system: T1, recombinant biotinylated rat PAR2 extracellular residues 1-75, N-terminal AviTag, C-terminal Flag and poly … (rat, UniProt Q63645 26-75, not fully specified; biotin on the AviTag (enzymatic biotinylation))
- T1 construct: range 1-75; not shown: N-terminal AviTag (Avidity LLC); C-terminal Flag and poly Histidine tags
- T1 chain (looked up): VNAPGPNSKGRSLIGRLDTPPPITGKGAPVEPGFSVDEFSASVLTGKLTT
- protocol_summary: Biacore SPR 25 C, pH 6.0
Number only, in M⁻¹ s⁻¹; omit the unit.

IN: I am curious: what kon value has been reported for PaB670128 Fab (Fab, V domains shown, Fab; also called ZZ1RUE-A01) VH: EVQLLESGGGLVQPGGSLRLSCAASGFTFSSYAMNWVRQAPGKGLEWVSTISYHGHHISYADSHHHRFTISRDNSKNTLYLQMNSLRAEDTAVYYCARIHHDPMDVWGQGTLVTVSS VL: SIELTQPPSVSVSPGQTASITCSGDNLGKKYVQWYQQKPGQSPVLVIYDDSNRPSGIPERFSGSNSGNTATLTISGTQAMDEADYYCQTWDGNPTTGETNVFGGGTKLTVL ?
OUT: 1.79e+06

IN: What about this binder? PaB670048 Fab (Fab, V domains shown, Fab; also called ZZ1KX4-E11) VH: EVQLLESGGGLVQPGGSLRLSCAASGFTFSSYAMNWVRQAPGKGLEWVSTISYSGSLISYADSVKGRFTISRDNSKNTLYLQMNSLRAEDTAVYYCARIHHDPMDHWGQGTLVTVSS VL: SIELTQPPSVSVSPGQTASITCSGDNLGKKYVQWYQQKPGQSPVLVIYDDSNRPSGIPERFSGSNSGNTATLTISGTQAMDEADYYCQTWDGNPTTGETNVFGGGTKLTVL
OUT: 4e+06

IN: What about this binder? Par0067 Fab (Fab, V domains shown, Fab; also called ZZ15D2-D02) VH: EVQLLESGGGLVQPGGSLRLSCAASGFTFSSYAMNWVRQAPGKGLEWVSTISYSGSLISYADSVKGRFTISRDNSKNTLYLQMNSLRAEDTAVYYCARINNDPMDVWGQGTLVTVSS VL: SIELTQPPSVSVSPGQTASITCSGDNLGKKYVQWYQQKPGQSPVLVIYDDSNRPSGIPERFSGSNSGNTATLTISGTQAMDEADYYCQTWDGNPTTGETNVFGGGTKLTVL
OUT: 3.21e+06

IN: What about this binder? PaB670129 Fab (Fab, V domains shown, Fab; also called ZZ1RUE-F02) VH: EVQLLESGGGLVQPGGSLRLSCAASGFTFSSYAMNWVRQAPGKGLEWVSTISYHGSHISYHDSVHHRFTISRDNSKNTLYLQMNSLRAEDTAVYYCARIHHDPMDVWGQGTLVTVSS VL: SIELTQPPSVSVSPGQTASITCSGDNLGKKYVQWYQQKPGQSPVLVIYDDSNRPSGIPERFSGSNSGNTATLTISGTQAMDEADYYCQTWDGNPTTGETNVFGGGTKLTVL
OUT: 1.45e+06

Source listed as patent US20180305450A1.
